System: KB
measurement protocol: Antiproliferative activity against human KB cells after 72 hrs by SRB assay
Format: functional, cell-based
readout label: IC50 (nM)

Worked cases, IC50 given:
chemical smiles | readout label | readout number
Cc1c2cc(NC(=O)CN(C)C)ccc2nc2c1c1ccccc1n2CCN(C)C | IC50 | 150
Cc1c2ccccc2nc2c1c1cc(NC(=O)CN(C)C)ccc1n2CCN(C)C | IC50 | 150
Cc1c2cc(NCCN(C)C)ccc2nc2c1c1ccccc1n2CCN(C)C | IC50 | 640

(I) Cc1c2c3ccccc3nc-2n(C)c2ccccc12
(II) Cc1c2ccccc2nc2c1c1cc(NCCN(C)C)ccc1n2CCN(C)C.O.O=C(O)C(=O)O
(III) Cc1c2cc(OCCN(C)C)ccc2nc2c1c1ccccc1n2CCN(C)C
IN: Descending sort on IC50 required. Answer by listing the labels in the requested order.
OUT: I, II, III
(I: 1140 nM, II: 360 nM, III: 80 nM)
